Test: Solubility of Compound 1 in pharmaceutical solvents at 25° C.
Type: physicochemical
Conditions: oil or lipid; Propylene glycol Laurate, 25° C.
REPORTED_PROPERTY: solubility
Please state the value followed by its unit.

// returns reported solubility for input `Cc1ccc(F)cc1C(=O)Nc1ccc(C(=O)N2Cc3cccn3Cc3ccccc32)c(Cl)c1`
680 µg/mL

---

Test: Solubility of Compound 1 in pharmaceutical solvents at 25° C.
Assay type: physicochemical
Details: organic solvent or mixture; Ethanol, 25° C.
REPORTED_PROPERTY: solubility (µg/mL)
One number for each entry, in µg/mL.

Param item = Cc1ccc(F)cc1C(=O)Nc1ccc(C(=O)N2Cc3cccn3Cc3ccccc32)c(Cl)c1 [Compound 1] ; retrieve measured solubility.
1890

Each recorded value in this set is attributed to patent US20070178147A1.
